- Assay Explanation: self-splicing fitness, log relative to wild type (ln ratio); higher = more splicing; Tetrahymena group I intron in knt gene, E. coli kanamycin selection, DiMSum; sequences stand for … in CUCUCU…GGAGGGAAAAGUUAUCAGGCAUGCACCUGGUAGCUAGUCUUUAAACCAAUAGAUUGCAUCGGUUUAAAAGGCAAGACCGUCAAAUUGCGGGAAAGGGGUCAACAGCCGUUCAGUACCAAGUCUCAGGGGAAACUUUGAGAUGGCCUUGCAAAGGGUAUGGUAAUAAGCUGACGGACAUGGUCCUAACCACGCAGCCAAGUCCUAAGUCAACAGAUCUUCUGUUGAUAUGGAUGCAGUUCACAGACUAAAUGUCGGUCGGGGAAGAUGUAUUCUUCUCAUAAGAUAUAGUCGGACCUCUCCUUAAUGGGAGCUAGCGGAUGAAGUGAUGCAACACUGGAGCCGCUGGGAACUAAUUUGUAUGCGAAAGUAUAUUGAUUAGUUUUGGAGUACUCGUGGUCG;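 further: selection with 25 µg/mL kanamycin versus none on LB agar overnight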
- Test Settings: 37 °C
Catalogue of self-splicing fitness (ln) readings, one per entry.
Would you mind answering with just the numeric figure?

[
  {
    "Primary Sequence": "CCUCAGCAAUAUUACGGGAC",
    "self-splicing fitness (ln)": -1.98
  }
]

Output self-splicing fitness (ln) of AUCCAGCAAUAUUACGGCUG
-2.43

Output self-splicing fitness (ln) of CCAGAGCAAUAUUACGGUCG
-0.448

Output self-splicing fitness (ln) of UGUAAGCAAUAUUACGUAAU
-1.33

Output self-splicing fitness (ln) of UGGCAGCAAUAUUACGGUUC
-0.624

Output self-splicing fitness (ln) of AGGCAGCAAUAUUACGCCUU
-3.04

Output self-splicing fitness (ln) of GACGAGCAAUAUUACGACCU
0.0378

Output self-splicing fitness (ln) of AUCGAGCAAUAUUACGGAUA
-1.92

Output self-splicing fitness (ln) of GCCUAGCAAUAUUACGAAGC
-2.15

Source listed as the supplement of paper PMC7877785.
